test system: transactivating tegument protein VP16 (Human herpesvirus 1); test: VP16 transactivation reporter inhibitors, counter-screen for SRC2 inhibitor project, cell-based, luminescence, single concentration (AID 652007); conditions: cell-based VP16 transactivation luciferase reporter, at 8.9 µM, stronger effect = higher value

Compound	inhibition [%]
CC[C@@H](C)[C@H](NC(=O)CCc1c(C)c2cc3c4c(oc3c(C)c2oc1=O)CCCC4)C(=O)O	40.8
Cc1ccc(C)c(NC(=O)COc2coc(CN3CCc4ccccc4C3)cc2=O)c1	-2.11
COCCn1c(C)cc(C(=O)COC(=O)c2cccc(O)c2)c1C	37.3
COc1ccc(C)cc1NS(=O)(=O)c1ccc(-c2cnc(C3CC3)o2)cc1	6.98
COc1ccc(-c2nc3ccccn3c2NC2CCCCC2)cc1SC1CCCCC1	17.4
O=C(COc1ccc(Cl)cc1Cl)Nc1ccccn1	67.4
CN(C)S(=O)(=O)c1ccc(NC(=O)COC(=O)c2n[nH]c3ccccc23)cc1	-4.93
COc1ccc2ccc(O)c(CN3CCN(S(=O)(=O)c4cccc(C(F)(F)F)c4)CC3)c2c1	6.66
Cc1nc2cc(-c3ccccc3)nn2c(C)c1CCC(=O)N1CCN(c2ccccc2)CC1	3.67
N=c1c2c3c(sc2ncn1N)CCCCC3	2.99
CC(C)C(=O)Nc1ccc(C(=O)NCc2cccnc2)cc1	-2.6
CCCCN(CCCNC(=S)NCCCc1cnc[nH]1)c1ccc(Br)cn1	-7.99
O=C(NCCc1ccccc1)c1ccc2c(c1)OCCO2	44.1
Cc1nc2cc(-c3ccccc3)sc2c(=O)n1N	22.3
CC[C@@]1(O)C(=O)OCc2c1cc1n(c2=O)Cc2cc3c(N)cccc3nc2-1	30.5
CCN(CC)S(=O)(=O)c1ccc(/C=C/C(=O)OCC(=O)NCc2ccc3c(c2)OCO3)cc1	-0.7
C=CCOc1ccc(/C=C2\SC(=S)N(CCC(=O)O)C2=O)cc1	-24.5
O=C(CCC1CCCC1)Nc1ccc(C(=O)NCc2cccnc2)cc1	-5.72
COc1ccc(OCCNC(=O)c2ccc3nc(C)c(N(C)C(=O)CCc4ccccc4)n3c2)cc1	-12.5
CCOc1ccc2oc(C(=O)NCc3ccccc3CN3CCCC3)c(C)c2c1	-10.5
CCC(=O)NC(c1ccc(C)cc1)c1ccc2cccnc2c1O (centres undefined)	-3.42
O=C(CCl)Nc1cc(SCC(O)CO)cc([N+](=O)[O-])c1 (centres undefined)	79
Cc1ccc(-c2nc(NC(=O)c3nn(C)cc3[N+](=O)[O-])sc2C)cc1	35.3
O=C(NCCc1cccc(Cl)c1)c1ccc(OC2CCN(Cc3ccccn3)CC2)cc1	12.7
Cc1ccsc1C(=O)OCC(=O)c1cc(C)n(CC2CCCO2)c1C (centres undefined)	59.5
COC(=O)CCn1nnc(-c2ccc(C(C)C)cc2)n1	58.8
O=C(COC(=O)CCN1C(=O)/C(=C\C=C\c2ccccc2)SC1=S)Nc1ccc(Br)cc1	38.2
CC(=O)Nc1ccc(NC(=O)c2nc(S(=O)(=O)Cc3cccc(C)c3)ncc2Cl)cc1	21.6
Cc1cccc(CS(=O)(=O)c2ncc(Cl)c(C(=O)Nc3ccc(F)cc3)n2)c1	69.8
O=C(CSCCO)Nc1ccc(C23CC4CC(CC(C4)C2)C3)cc1	-57.7
Cc1nc2ccccc2c2c1CC(C(C)(Cl)Br)O2 (centres undefined)	5.15
Cc1cc(C)c2c3c(sc2n1)C(=O)N(c1ccccc1C)CC(=O)N3	4.42
COc1ccc(S(=O)(=O)Nc2cc(Sc3ncn[nH]3)c(O)c3ccccc23)cc1	26.7
Clc1cccc(-c2nc(-c3ccccn3)no2)c1	-11
Cc1cc(Nc2ccccc2)n(C(=O)c2ccc(N)cc2)n1	-71.3
CCOC(=O)C1=CCN(S(=O)(=O)c2ccccc2C)C1c1ccc(Cl)c(Cl)c1 (centres undefined)	-18.3
COC(=O)/C=C/C(=O)Nc1cccc(C(F)(F)F)c1	25.8
O=C(/C=C/Nc1ccccc1Br)c1ccccn1	64.9
O=C(Nc1ccc(F)cc1)c1nc(S(=O)(=O)Cc2ccccc2)ncc1Cl	36.6
CCOC(=O)C1CCN(C(=O)CCc2c(C)nc3cc(-c4ccccc4)nn3c2C)CC1	-24.4
CCOC(=O)C1CCCN(C(=O)CCNS(=O)(=O)c2ccc(Br)cc2)C1 (centres undefined)	10.6
O=C(CCCN1C(=O)/C(=C/c2cccc(Br)c2)SC1=S)NCCCN1CCOCC1	32.1
NNC(=O)c1cc2ccccc2cc1O	16.4
CC(C)(C)n1nc(Cc2cccc3ccccc23)c2c(N)ncnc21	2.66
